Assay: Selectivity index, ratio of IC50 for human WI-38 cells to IC50 for human CCRF-CEM cells
Format: toxicity
Details: WI-38 cells and CCRF-CEM cells, read-out: Ratio IC50

{"columns": ["Smiles Data", "selectivity ratio"],
 "data": [
  ["CCN1CCN(c2ccc(NC(=O)Nc3ccc(-c4cc(C(=O)NC(C)C)c5ncccc5n4)cc3)cc2C(F)(F)F)CC1", 15.4]
]}

* * *

Experiment: Selectivity index, ratio of IC50 for human WI-38 cells to IC50 for human HT-29 cells
Assay type: toxicity
Details: WI-38 cells and HT-29 cells, read-out: Ratio IC50
Result Type: selectivity ratio

{"columns": ["Smiles Data", "Result"],
 "data": [
  ["CCN1CCN(c2ccc(NC(=O)Nc3ccc(-c4cc(C(=O)NC(C)C)c5ncccc5n4)cc3)cc2C(F)(F)F)CC1", 18.8]
]}

* * *

Each entry below carries its recorded IC50.
Test system: HepG2
Test: cells
Conditions: Homo sapiens, HepG2, 48 h
Description: Antiproliferative activity against human HepG2 cells assessed as cell growth inhibition measured after 48 hrs by MTT assay

{"columns": ["Smiles Data", "Test Target", "IC50 [nM]"],
 "data": [
  ["CNC(=O)c1cc(-c2ccc(NC(=O)Nc3ccc(N4CCOCC4)c(C(F)(F)F)c3)cc2)nc2cccnc12", "HepG2", 1270],
  ["C=CC(=O)N1CCN(c2ccc(NC(=O)Nc3ccc(-c4cc(C(=O)NC(C)C)c5ncccc5n4)cc3)cc2C(F)(F)F)CC1", "HepG2", 870],
  ["CC(C)NC(=O)c1cc(-c2ccc(NC(=O)Nc3ccc(N4CCNCC4)c(C(F)(F)F)c3)cc2)nc2cccnc12", "HepG2", 920],
  ["CC(C)NC(=O)c1cc(-c2ccc(NC(=O)Nc3ccc(N4CCN(C)CC4)c(C(F)(F)F)c3)cc2)nc2cccnc12", "HepG2", 800],
  ["CCN1CCN(c2ccc(NC(=O)Nc3ccc(-c4cc(C(=O)NC(C)C)c5ncccc5n4)cc3)cc2C(F)(F)F)CC1", "HepG2", 460]
]}
